Assay: AUC (0 to infinity) in Beagle dog at 0.3 mg/kg, po
Type: ADME, organism-based, Canis lupus familiaris
Set-up: time infinity, dose 0.3 mg/kg, route po
Details: in vivo
RESULT TYPE: AUC(0-inf) (µM·h)
// note: answer is a bare numeric in µM·h

Req: In one line, give reported AUC(0-inf) of the entry "C[C@@]1(c2nc(NC(=O)c3ncc(C(F)(F)F)cc3Cl)ccc2F)CO[C@@](C)(C(F)(F)F)C(N)=N1" .
Resp: 7.75

====

Assay: Octanol/water partition coefficient, log P of the compound
Format: physicochemical
RESULT TYPE: logP

Req: In one line, give reported logP of the entry "C[C@@]1(c2nc(NC(=O)c3ncc(C(F)(F)F)cc3Cl)ccc2F)CO[C@@](C)(C(F)(F)F)C(N)=N1" .
Resp: 4.3

====

Experiment: Half life in Beagle dog at 0.3 mg/kg, po
Format: ADME, organism-based, Canis lupus familiaris
Conditions: in vivo
RESULT TYPE: half-life

Req: In one line, give reported half-life of the entry "C[C@@]1(c2nc(NC(=O)c3ncc(C(F)(F)F)cc3Cl)ccc2F)CO[C@@](C)(C(F)(F)F)C(N)=N1" .
Resp: 23.4 h

====

Assay: Cmax in Beagle dog at 0.3 mg/kg, po
Assay type: ADME, organism-based, Canis lupus familiaris
Set-up: dose 0.3 mg/kg, route po
Conditions: in vivo
RESULT TYPE: Cmax (nM)
// note: answer is a bare numeric in nM

Req: In one line, give reported Cmax of the entry "C[C@@]1(c2nc(NC(=O)c3ncc(C(F)(F)F)cc3Cl)ccc2F)CO[C@@](C)(C(F)(F)F)C(N)=N1" .
Resp: 257

====

Experiment: Cmax in C57BL/6 mouse at 6 mg/kg, po
Format: ADME, organism-based
Parameters: dose 6 mg/kg, route po
Settings: in vivo
RESULT TYPE: Cmax (nM)
// note: answer is a bare numeric in nM

Req: In one line, give reported Cmax of the entry "C[C@@]1(c2nc(NC(=O)c3ncc(C(F)(F)F)cc3Cl)ccc2F)CO[C@@](C)(C(F)(F)F)C(N)=N1" .
Resp: 82

====

Kindly state Cmax for each of the entries shown.
Test: Cmax in Sprague-Dawley rat at 6 mg/kg, po
Format: ADME, organism-based
Design: dose 6 mg/kg, route po
Conditions: in vivo
// note: answer is a bare numeric in nM

Req: In one line, give reported Cmax of the entry "C[C@@]1(c2nc(NC(=O)c3ncc(C(F)(F)F)cc3Cl)ccc2F)CO[C@@](C)(C(F)(F)F)C(N)=N1" .
Resp: 146

Req: In one line, give reported Cmax of the entry "Cc1cc(C#N)cnc1C(=O)Nc1ccc(F)c([C@]2(C)CO[C@@](C)(C(F)(F)F)C(N)=N2)c1" .
Resp: 128

====

Test: Thermodynamic solubility of the compound at pH 1
Format: physicochemical
Conditions: buffer, read-out: Therm_solubility
RESULT TYPE: solubility thermodynamic

Req: In one line, give reported solubility thermodynamic of the entry "C[C@@]1(c2nc(NC(=O)c3ncc(C(F)(F)F)cc3Cl)ccc2F)CO[C@@](C)(C(F)(F)F)C(N)=N1" .
Resp: > 1500 µg/mL

====

Assay: Drug concentration in Sprague-Dawley rat brain at 3 umol/kg, po measured after 4 hrs by LC-MS/MS analysis
Format: ADME, organism-based
Details: dose 3 µmol/kg, read-out: Drug uptake
RESULT TYPE: concentration at 4 h (nM)
// note: answer is a bare numeric in nM

Req: In one line, give reported concentration at 4 h of the entry "C[C@@]1(c2nc(NC(=O)c3ncc(C(F)(F)F)cc3Cl)ccc2F)CO[C@@](C)(C(F)(F)F)C(N)=N1" .
Resp: 180

Attribution: ChEMBL document CHEMBL5053529
